Catalogue of Kd values
- SYSTEM: T1, monkey GPC3-His protein (monkey)
- T1 construct: Bought recombinant protein; also called monkey GPC3 protein
- ASSAY NOTES: SPR, antibody captured on Protein A chip, monkey GPC3-His analyte;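 note: run at 25 °C with 240 s association and up to 600 s dissociation, double-referenced, kinetics fitted to a 1:1 Langmuir binding model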
Return type: number; implicit unit nM.

[[record]]
binder = "F1.83.6 (antibody, human IgG1, kappa, V domains shown, Human-murine chimeric antibody) VH: QVQLQQSGPELVKPGASVKISCKASGYAFSSSWMNWVKQRPGKGLEWIGRIYPGDGDTNYNGRFKGKATLTVDKSSSTAYMQLSSLTSEDSAVYFCARGGVFTMALDHWGQGTTLTVSS VL: DIQMTQSPSSLSASLGGKVTITCKASQDINKYIAWYQHKPGKGPRLLIHYTSTLQPGIPSRFSGSGSGRDYSFSISNLEPEDIATYYCLQYDNLFTFGGGTKLEIKR"
experimental_result = 3.4


Which measured Kd value corresponds to F1.92.17 (antibody, human IgG1, kappa, V domains shown, Human-murine chimeric antibody) VH: EVQLQQSGPELVKPGASVKMSCKASGYTFTDYNMHWVRQSHGKSLEWIGYINPNNGDTIYNQNFKGKATLTVNKSSSTAYMELRSLTSEDSAVYYCSRTITYYYSMDYWGPGTSVTVSS VL: QIVLTQSPALMSASPGEKVTMTCSASSSVSYMYWYQQKPRSSPKPWIYLTSNLASGVPARFSGSGSGTSYSLTISSMEAEDAATYYCQQWSSNPLTFGAGTKLELKR ?
5.07

Field entry: F1.145.22 (antibody, human IgG1, kappa, V domains shown, Human-murine chimeric antibody) VH: QVQLQQSGTDLARPGASVKLSCKASGYTFTSFGISWVKQRTGQGLEWIGEIYPRSGSPYYNEKFTGKATLTADKSSSTAYMELRSLTSEDSAVYFCAKDFGSSYVFDYWGQGTALTVSS VL: DIQMTQSPASLSASVGETVTITCRASENIYSYLTWYQQKQGKSPQLLVYNAKTLAEGVPSRFSGSGSGTQFSLKINSLQPEDFGTYYCQHHYGTPPTFGTGTKLDLKR
0.525
